Target or system: plasma DPP-IV (Rattus norvegicus, UniProt P14740)
Construct: The collected blood was immediately centrifuged to isolate the plasma; from tissue; host or cells: plasma of male SD rats (Clea Japan)
Sequence (P14740 37-767 limits assumed): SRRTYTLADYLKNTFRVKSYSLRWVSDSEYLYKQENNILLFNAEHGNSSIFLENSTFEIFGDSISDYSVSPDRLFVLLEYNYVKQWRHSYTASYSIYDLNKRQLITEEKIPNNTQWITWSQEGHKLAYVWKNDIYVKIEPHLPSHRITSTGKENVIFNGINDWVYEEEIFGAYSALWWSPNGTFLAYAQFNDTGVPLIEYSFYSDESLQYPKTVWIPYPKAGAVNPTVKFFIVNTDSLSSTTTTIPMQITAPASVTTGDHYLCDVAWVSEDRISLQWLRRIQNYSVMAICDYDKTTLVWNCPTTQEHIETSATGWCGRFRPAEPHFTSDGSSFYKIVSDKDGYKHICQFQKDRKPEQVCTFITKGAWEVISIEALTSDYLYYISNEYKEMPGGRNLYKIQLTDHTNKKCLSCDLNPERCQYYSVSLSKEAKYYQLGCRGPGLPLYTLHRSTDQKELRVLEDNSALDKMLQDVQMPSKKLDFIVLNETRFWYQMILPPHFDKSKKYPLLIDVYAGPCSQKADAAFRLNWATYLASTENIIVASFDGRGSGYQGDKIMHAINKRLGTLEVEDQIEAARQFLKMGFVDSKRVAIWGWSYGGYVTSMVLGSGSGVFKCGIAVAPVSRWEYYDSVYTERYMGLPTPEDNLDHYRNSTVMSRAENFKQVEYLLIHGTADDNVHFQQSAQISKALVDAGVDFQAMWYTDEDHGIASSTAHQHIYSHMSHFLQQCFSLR
Experiment summary: Test for DPP-IV inhibiting activity duration in rats
Assay type: in vivo
Assay conditions: po, read-out: inhibition of plasma DPP-IV activity after 6 h, male SD rats, 10 mg/kg orally, 6 h after administration, relative to control group
// label = met if inhibition at 10 mg/kg is not less than 90%, otherwise not met

Would you say COCC(=O)N1CCC(NCC(=O)N2CCC[C@H]2C#N)CC1 [compound 2, reference compound] shows inhibition at 10 mg/kg at minimum 90%?
not met

Then this compound: CS(=O)(=O)N1CCC(NCC(=O)N2CCC[C@H]2C#N)CC1 [compound 1, reference compound]
not met

Ok, now COC(C)S(=O)(=O)N1CCC(C)(NCC(=O)N2C[C@@H](F)C[C@H]2C#N)CC1 (some centres unmarked) [compound 3, reference compound]
not met

Try the compound `CC1(NCC(=O)N2C[C@@H](F)C[C@H]2C#N)CCN(C(=O)CO)CC1`
met

----------
Target or system: DPP-IV (Homo sapiens)
Construct: added was 5 μL of plasma collected from healthy adult volunteers; from tissue; host or cells: plasma of healthy adult volunteers
Sequence (P27487 39-766 limits assumed): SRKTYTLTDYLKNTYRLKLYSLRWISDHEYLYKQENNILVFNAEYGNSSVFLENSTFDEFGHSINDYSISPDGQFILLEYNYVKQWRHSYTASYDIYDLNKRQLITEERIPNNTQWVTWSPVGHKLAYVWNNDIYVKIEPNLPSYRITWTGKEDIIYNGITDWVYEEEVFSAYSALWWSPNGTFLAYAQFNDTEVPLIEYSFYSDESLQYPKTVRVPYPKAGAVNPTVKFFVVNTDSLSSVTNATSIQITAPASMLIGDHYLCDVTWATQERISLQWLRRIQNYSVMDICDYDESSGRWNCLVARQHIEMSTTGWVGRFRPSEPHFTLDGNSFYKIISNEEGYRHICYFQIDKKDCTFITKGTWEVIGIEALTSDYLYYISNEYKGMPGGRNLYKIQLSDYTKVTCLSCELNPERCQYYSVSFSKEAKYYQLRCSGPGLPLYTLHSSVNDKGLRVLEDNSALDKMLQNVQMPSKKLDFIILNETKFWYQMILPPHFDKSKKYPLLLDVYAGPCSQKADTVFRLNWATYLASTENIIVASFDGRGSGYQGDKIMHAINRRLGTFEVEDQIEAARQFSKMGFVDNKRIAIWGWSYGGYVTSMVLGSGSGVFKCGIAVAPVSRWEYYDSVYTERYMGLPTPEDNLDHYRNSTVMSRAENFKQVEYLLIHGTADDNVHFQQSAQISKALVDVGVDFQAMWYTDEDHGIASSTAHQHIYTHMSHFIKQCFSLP
Experiment summary: Test for determination of DPP-IV inhibiting activity (Gly-Pro-AMC cleavage by human plasma)
Format: biochemical
Assay conditions: plasma from healthy adult volunteers, 0.01 mM Gly-Pro-AMC, room temperature, 20 minutes; read-out: IC50 (DPP-IV inhibiting activity)
Quantity: pIC50
Reminder that pIC50 means the negative base-10 logarithm of the concentration expressed in mol/L.

- N#C[C@@H]1C[C@H](F)CN1C(=O)CNC1CCN(C=O)CC1: 8.38
- N#C[C@@H]1C[C@H](F)CN1C(=O)CNC1CCN(C(=O)N2CCOCC2)CC1: 8.29
- N#C[C@@H]1C[C@H](F)CN1C(=O)CNC1CCN(C(=O)CO)CC1: 8.22
- CC1(NCC(=O)N2C[C@@H](F)C[C@H]2C#N)CCN(C=O)CC1: 8.12
- CC1(NCC(=O)N2C[C@@H](F)C[C@H]2C#N)CCN(C(=O)CO)CC1: 8.09

Dear colleague, I am looking for the recorded pIC50 of the following compound: CS(=O)(=O)N1CCC(NCC(=O)N2C[C@@H](F)C[C@H]2C#N)CC1 [Example 1, monofumarate]
8.38

----------
Target or system: plasma DPP-IV (Rattus norvegicus)
Construct: The collected blood was immediately centrifuged to isolate the plasma; from tissue; host or cells: plasma of male SD rats (Clea Japan)
Experiment summary: Test for DPP-IV inhibiting activity duration in rats
Format: in vivo
Assay conditions: po, male SD rats, 10 mg/kg orally, 12 h after administration, relative to control group, read-out: inhibition of plasma DPP-IV activity after 12 h
# reported inhibition at 10 mg/kg; entries follow
Please state the figure in %; there is no need to write the unit.

* COCC(=O)N1CCC(NCC(=O)N2CCC[C@H]2C#N)CC1 [compound 2, reference compound] | 55

Dear colleague, I am looking for the recorded inhibition at 10 mg/kg of the following compound: `CC1(NCC(=O)N2C[C@@H](F)C[C@H]2C#N)CCN(C=O)CC1`
86

Do the same for CS(=O)(=O)N1CCC(NCC(=O)N2CCC[C@H]2C#N)CC1 [compound 1, reference compound] please
38

Further, for `CC1(NCC(=O)N2C[C@@H](F)C[C@H]2C#N)CCN(C(=O)CO)CC1` ?
94

Similarly, COC(C)S(=O)(=O)N1CCC(C)(NCC(=O)N2C[C@@H](F)C[C@H]2C#N)CC1 (some centres unmarked) [compound 3, reference compound] ?
45

----------
Target or system: plasma DPP-IV (Mus musculus)
Construct: The collected blood was immediately centrifuged to isolate the plasma; from tissue; host or cells: plasma of male ICR mice (Nippon SLC)
Experiment summary: Test for DPP-IV inhibiting activity duration in mice
Format: in vivo
Assay conditions: po, male ICR mice, 10 mg/kg orally, 12 h after administration, relative to control group, read-out: inhibition of plasma DPP-IV activity after 12 h
Quantity: inhibition at 10 mg/kg (%)
API: value field is a number in %; no unit string.

Some solved cases for reference:
* N#C[C@@H]1C[C@H](F)CN1C(=O)CNC1CCN(C(=O)CO)CC1 | 71
* CS(=O)(=O)N1CCC(NCC(=O)N2C[C@@H](F)C[C@H]2C#N)CC1 [Example 1, monofumarate] | 59
* CC1(NCC(=O)N2C[C@@H](F)C[C@H]2C#N)CCN(C(=O)CO)CC1 | 79

inhibition at 10 mg/kg for `CC1(NCC(=O)N2C[C@@H](F)C[C@H]2C#N)CCN(C=O)CC1` ?
78

Then this compound: `N#C[C@@H]1C[C@H](F)CN1C(=O)CNC1CCN(C=O)CC1`
61

----------
Target or system: plasma DPP-IV (Mus musculus, UniProt P28843)
Construct: The collected blood was immediately centrifuged to isolate the plasma; from tissue; host or cells: plasma of male ICR mice (Nippon SLC)
Sequence (P28843 37-760 limits assumed): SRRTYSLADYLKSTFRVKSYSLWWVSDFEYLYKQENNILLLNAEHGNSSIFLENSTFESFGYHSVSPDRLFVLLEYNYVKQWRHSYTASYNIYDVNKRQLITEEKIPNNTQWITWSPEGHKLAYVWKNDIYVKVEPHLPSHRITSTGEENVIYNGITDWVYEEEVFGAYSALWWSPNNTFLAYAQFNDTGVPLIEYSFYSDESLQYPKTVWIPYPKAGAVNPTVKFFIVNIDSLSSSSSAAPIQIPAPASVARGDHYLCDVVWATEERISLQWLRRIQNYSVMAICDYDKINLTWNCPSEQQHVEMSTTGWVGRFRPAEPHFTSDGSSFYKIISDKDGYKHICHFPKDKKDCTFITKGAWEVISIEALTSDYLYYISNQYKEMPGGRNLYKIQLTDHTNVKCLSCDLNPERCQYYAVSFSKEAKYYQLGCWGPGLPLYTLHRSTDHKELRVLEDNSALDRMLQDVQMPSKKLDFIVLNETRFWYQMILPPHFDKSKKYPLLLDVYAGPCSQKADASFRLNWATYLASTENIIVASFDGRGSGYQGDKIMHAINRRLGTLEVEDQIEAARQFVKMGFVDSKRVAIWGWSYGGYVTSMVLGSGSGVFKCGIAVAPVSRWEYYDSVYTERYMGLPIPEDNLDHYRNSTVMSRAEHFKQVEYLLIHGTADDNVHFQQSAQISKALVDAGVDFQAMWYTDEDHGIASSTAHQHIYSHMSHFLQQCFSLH
Experiment summary: Test for DPP-IV inhibiting activity duration in mice
Type: in vivo
Assay conditions: po, read-out: inhibition of plasma DPP-IV activity after 6 h, male ICR mice, 10 mg/kg orally, 6 h after administration, relative to control group
Quantity: inhibition at 10 mg/kg (%)
Your answer is read as %, so omit the unit and give the number.

• CC1(NCC(=O)N2C[C@@H](F)C[C@H]2C#N)CCN(C=O)CC1 [Example 36] = 81

I would be grateful if you could share the reported inhibition at 10 mg/kg for N#C[C@@H]1C[C@H](F)CN1C(=O)CNC1CCN(C(=O)CO)CC1 [Example 21] .
78

----------
Target or system: plasma DPP-IV (Mus musculus)
Construct: The collected blood was immediately centrifuged to isolate the plasma; from tissue; host or cells: plasma of male ICR mice (Nippon SLC)
Experiment summary: Test for DPP-IV inhibiting activity duration in mice
Type: in vivo
Assay conditions: po, read-out: inhibition of plasma DPP-IV activity after 6 h, male ICR mice, 10 mg/kg orally, 6 h after administration, relative to control group
Listing: inhibition at 10 mg/kg of selected compounds
Form entry: value (%) — number only.

# count of solved cases: 2
• CS(=O)(=O)N1CCC(NCC(=O)N2C[C@@H](F)C[C@H]2C#N)CC1 [Example 1, monofumarate] = 74
• CC1(NCC(=O)N2C[C@@H](F)C[C@H]2C#N)CCN(C(=O)CO)CC1 = 85

Give the measured inhibition at 10 mg/kg of `N#C[C@@H]1C[C@H](F)CN1C(=O)CNC1CCN(C=O)CC1` .
72

meta.source: patent US7268150B2
